For each of the molecules below, state its cell viability.
- Tested on: MARIMO
- PROCEDURE TEXT: cell viability relative to vehicle control; higher = less cytotoxic;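 further: after 48 h exposure read by CellTiter-Glo luminescence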
- CONDITION SUMMARY: 10 µM; SRSF2 genotype: SRSF2 wt/wt
Structures can show the parent of a compound that is named as a salt.
Respond with the figure and its unit, in that order.

MARIMO cell viability of C[C@@H]1CC[C@@]2(OC1)O[C@H]1C[C@H]3[C@@H]4CC=C5C[C@@H](O[C@@H]6O[C@H](CO)[C@@H](O)[C@H](O[C@@H]7O[C@H](CO)[C@@H](O)[C@H](O)[C@H]7O)[C@H]6O[C@@H]6O[C@@H](C)[C@H](O)[C@@H](O)[C@H]6O)CC[C@]5(C)[C@H]4CC[C@]3(C)[C@H]1[C@@H]2C is 11.4%

Kindly note: MARIMO, O=C(O)c1cccnc1 , cell viability value reported: 111%

For the molecule Cc1nc(-c2ccc(OCC(C)C)c(C#N)c2)sc1C(=O)O , the measured cell viability on MARIMO was 111%

# lookup: Fc1cc(-c2cccc3ncc(-c4cnn(C5CCNCC5)c4)nc23)cc(F)c1CN1CCOCC1 on MARIMO, cell viability = 5.4%

Reading of cell viability for Cc1ccc(NCCN(C)CCNc2ccnc3cc(Cl)ccc23)c2c(=O)c3ccccc3sc12 with MARIMO: 88.2%

Record for CO/N=C(\C(=O)N[C@@H]1C(=O)N2C(C(=O)[O-])=C(C[n+]3cccc4c3CCC4)CS[C@H]12)c1csc(N)n1 [Cefpirome sulfate] under target or system MARIMO: cell viability reported as 108%

Measured cell viability (MARIMO), entry COc1ccc(C[C@@H]2c3cc(Oc4cc(C[C@@H]5c6cc(O)c(OC)cc6CCN5C)ccc4O)c(OC)cc3CCN2C)cc1 : 16.6%

Value (cell viability, MARIMO) for record CCOC(=O)N[C@@H]1CC[C@@H]2[C@@H](C1)C[C@H]1C(=O)O[C@H](C)[C@H]1[C@H]2/C=C/c1ccc(-c2cccc(F)c2)cn1 = 82.5%

Lab note: molecule O=C(O)CC[C@H]1CC[C@@](c2cc(F)ccc2F)(S(=O)(=O)c2ccc(Cl)cc2)CC1 tested on MARIMO; recorded cell viability was 92.1%

Lab note: molecule FC(F)(F)Oc1ccc2nc(-c3ccc(OCCOCCOc4ccc(-c5nc6ccc(OC(F)(F)F)cc6[nH]5)nc4)cn3)[nH]c2c1 tested on MARIMO; recorded cell viability was 39.3%

Field cell viability (MARIMO), entry CC1(C)CCC[C@](C)([C@H]2CC[C@]3(C)[C@@H]2[C@H](O)C[C@@H]2[C@@]4(C)CC[C@H](O)C(C)(C)[C@@H]4[C@@H](O)C[C@]23C)O1 : 105%

Record O[C@@H](COc1cccc2ncccc12)CN1CCN([C@@H]2c3ccccc3[C@@H]3[C@H](c4ccccc42)C3(F)F)CC1 has MARIMO cell viability equal to 55.6%

Bench note, MARIMO: COc1cc(C(=O)NC2CCCNC2)cc(OC)c1OC (centres undefined) [Troxipide] , cell viability reads 106%

Here O=[N+]([O-])c1ccc2c(c1)S(=O)(=O)C=C2 was tested on MARIMO, and its cell viability came to 0.16%

Param item: CCCC(CCC)C(=O)O [Valproic acid] ; param system: MARIMO; output cell viability: 100%

Reported MARIMO cell viability for item CN(C)CCOC(c1ccccc1)c1ccccc1 [Diphenhydramine HCl (Benadryl)] was 91.7%

Entry Cn1cc(-c2ccc(S(=O)(=O)n3ccc(/C=C/C(=O)Nc4ccccc4N)c3)cc2)cn1 : cell viability on MARIMO = 5.67%

The molecule CC(=O)OC(CC(C)C1=C2CC(O)C3C4(C)CCC(=O)C(C)(C)C4CCC3(C)C2(C)CC1)C1OC1(C)C (centres undefined) [Alisol B Acetate] , when measured on MARIMO, yielded cell viability of 55.6%

Record for COc1cc(O)c(C(=O)c2ccccc2)cc1S(=O)(=O)O under target or system MARIMO: cell viability reported as 104%

Value (cell viability, MARIMO) for record O=c1cc(-c2ccc(O)c(O)c2)oc2cc(O)cc(O)c12 = 82.6%

Entry C[C@H]1O[C@@H](Oc2c(-c3cc(O)c(O)c(O)c3)oc3cc(O)cc(O)c3c2=O)[C@@H](O)[C@@H](O)[C@@H]1O , tested on MARIMO, has a reported cell viability of 102%

# value of cell viability, MARIMO, item NCCNc1ccc(NCCN)c2c1C(=O)c1ccncc1C2=O [Pixantrone Maleate] = 7.14%

Known value: MARIMO cell viability of the molecule C[C@@H](CN1CC(=O)NC(=O)C1)N1CC(=O)NC(=O)C1 [Dexrazoxane] equals 96.9%

Lab note: molecule O=C(/C=C/c1ccc(O)c2c1[C@H](C(=O)O[C@H](Cc1ccc(O)c(O)c1)C(=O)O)[C@@H](c1ccc(O)c(O)c1)O2)O[C@H](Cc1ccc(O)c(O)c1)C(=O)O tested on MARIMO; recorded cell viability was 108%

Readout cell viability for COc1cc(C[C@H](C)[C@H](C)Cc2ccc3c(c2)OCO3)ccc1O , test system MARIMO, was 94.9%

Value (cell viability, MARIMO) for record Cc1[nH]c(=O)c(C#N)cc1-c1ccncc1 = 93.1%

# value of cell viability, MARIMO, item Fc1ccc2[nH]ccc2c1-c1nc(N2CCOCC2)c2sc(CN3CCN(CC4CC4)CC3)cc2n1 = 67.3%

Considering COc1ccc(CC(=O)Nc2nc3c(s2)CCc2ccccc2-3)cc1OC , its cell viability with MARIMO was recorded as 26.8%

Form: item CO[C@@H]1[C@@H](O[C@@H]2O[C@H](C)[C@@H](O[C@H]3C[C@@](C)(O)[C@@H](O)[C@H](C)O3)[C@H](N(C)C)[C@H]2O)[C@@H](CC=O)C[C@@H](C)[C@@H](O[C@H]2CC[C@H](N(C)C)[C@@H](C)O2)/C=C/C=C/C[C@@H](C)OC(=O)C[C@H]1OC(C)=O ; test system MARIMO; cell viability: 90.3%

* * *

- Test system: MARIMO
- PROCEDURE TEXT: cell viability relative to vehicle control; higher = less cytotoxic
- CONDITION SUMMARY: 10 µM; SRSF2 genotype: SRSF2 wt/wt
Give cell viability for every item shown.
// units = %; emit number, no label

Lookup result for O=C(O)/C=C/c1ccc(O)c(O)c1 [Caffeic acid] ; measured cell viability: 105

Input CCc1cnn2c(NCc3ccc[n+]([O-])c3)cc(N3CCCC[C@H]3CCO)nc12 . Output cell viability: 4.43

Lab book: cell viability of CCCCOC(=O)c1ccccc1Nc1cccc(C(F)(F)F)c1 [Ufenamate] noted as 102

The compound C[C@@H]1O[C@@H](O[C@H]2[C@H](O[C@H]3CC[C@@]4(C)[C@@H](CC[C@]5(C)[C@@H]4CC=C4[C@@H]6CC(C)(C)CC[C@]6(C(=O)O[C@@H]6O[C@H](CO[C@@H]7O[C@H](CO)[C@@H](O)[C@H](O)[C@H]7O)[C@@H](O)[C@H](O)[C@H]6O)CC[C@]45C)[C@]3(C)CO)OC[C@H](O)[C@@H]2O)[C@H](O)[C@H](O[C@@H]2O[C@H](CO)[C@@H](O[C@@H]3O[C@H](CO)[C@@H](O)[C@H](O)[C@H]3O)[C@H](O)[C@H]2O)[C@H]1O [Macranthoidin B] showed cell viability equal to 94.2

The measured cell viability associated with CC(COc1ccccc1Cc1ccccc1)N1CCCCC1 (stereo unspecified) [Benproperine phosphate] reads 78.5

Lookup result for COCCOc1ccc2c(c1)ncn2-c1ccc2cccc(N3CCC(N)CC3)c2n1 ; measured cell viability: 1.07

* * *

- System: MOLM14
- PROCEDURE TEXT: cell viability relative to vehicle control; higher = less cytotoxic
- CONDITION SUMMARY: 10 µM; SRSF2 genotype: SRSF2 wt/wt
Consider the following compounds; for each one, report its cell viability.
Field format: number, assumed %, no unit text.

cell viability in this record for O=C(O)c1c[nH]c2cc(Cl)c(-c3ccc(C4(O)CCC4)cc3)cc12 : 102

The compound listed as O=S(=O)(O)CCSSCCS(=O)(=O)O [Dimesna] shows cell viability equal to 99.6

Entry C[C@@H](Oc1ccc2[nH]nc(/C=C/c3cnn(CCO)c3)c2c1)c1c(Cl)cncc1Cl — recorded cell viability = 0.16

Briefly, cell viability measured for O=C(O)[C@H]1O[C@@H](Oc2cc3oc(-c4ccc(O)cc4)cc(=O)c3c(O)c2O)[C@H](O)[C@@H](O)[C@@H]1O [Scutellarin] : 105

// cell viability lookup, compound = CN1CCN(C2CCN(C(=O)Nc3cc(Oc4ccc(NC(=O)C5(C(=O)Nc6ccc(F)cc6)CC5)c(F)c4)ccn3)CC2)CC1 [Golvatinib (E7050)] , result: 8.67

Documented cell viability of CCNC(=O)Nc1ccc(-c2nc(N3CCOC[C@@H]3C)c3c(n2)C(C)(C)S(=O)(=O)C3)cc1 : 26.9

The reported cell viability of the compound CCOc1nc2cccc(C(=O)OC(C)OC(=O)OC3CCCCC3)c2n1Cc1ccc(-c2ccccc2-c2nn[nH]n2)cc1 (stereo not drawn) [Candesartan cilexetil (Atacand)] was 87.1

Kindly note the recorded cell viability for O=C(c1cncc(Br)c1)N1CCC(N2CCCC2)CC1 , which is 101
